Some compounds, each annotated with its measured growth.
Test system: U251 CNS
experiment summary: NCI-60 one-dose screen, 48 h (100 = growth as untreated, 0 = no growth, -100 = all killed)
test conditions: 10 µM unless noted
This is part of a sample that, as a whole, favours compounds with a hit. Of some 83,000 tested, about 20% had one in any assay.
metric name: growth (%)

{"compound": "Cc1cc(NC(=O)CCc2ccc(N3C(N)=NC(N)=NC3(C)C)cc2)ccc1S(=O)(=O)F", "assayed target": "U251 CNS", "readout unit": "%", "result": 24.2}
{"compound": "Cc1ccccc1O", "assayed target": "U251 CNS", "readout unit": "%", "result": 105}
{"compound": "C=CCc1ccc(OC(=O)Cc2ccccc2)c(OC)c1", "assayed target": "U251 CNS", "readout unit": "%", "result": 99.3}
{"compound": "O=C(O)CC(Br)C(=O)CBr (stereo unspecified)", "assayed target": "U251 CNS", "readout unit": "%", "result": 99.2}
{"compound": "Cc1cc(N(CCCl)CCCl)ccc1C=Nc1ccc2ccccc2c1", "assayed target": "U251 CNS", "readout unit": "%", "result": 63}
{"compound": "Cc1cccc(N(C)c2cccc3c2C(=O)[Se]C3)c1C", "assayed target": "U251 CNS", "readout unit": "%", "result": 47}
{"compound": "O=[N+]([O-])c1ccc(F)c([N+](=O)[O-])c1F", "assayed target": "U251 CNS", "readout unit": "%", "result": 101}
{"compound": "C[As](=O)(O)c1ccc(C(=O)O)cc1", "assayed target": "U251 CNS", "readout unit": "%", "result": 89.5}
{"compound": "Oc1ccc2c3c1O[C@H]1c4[nH]c5ccccc5c4C[C@@]4(O)C(C2)N(CC2CC2)CC[C@]314", "assayed target": "U251 CNS", "readout unit": "%", "result": 90.2}
{"compound": "CC(=O)[O][Hg][CH2]C1(C)COC(C)([CH2][Hg][O]C(C)=O)CO1 (stereo unspecified)", "assayed target": "U251 CNS", "readout unit": "%", "result": -96.2}
{"compound": "CC(=O)[O][Hg][c]1nc2c(c(=O)n(C)c(=O)n2C)n1C", "assayed target": "U251 CNS", "readout unit": "%", "result": 88.3}

---

Tested on: K-562 leukemia
experiment summary: NCI-60 one-dose screen, 48 h (100 = growth as untreated, 0 = no growth, -100 = all killed)
test conditions: 10 µM unless noted
Compounds without any hit were thinned out: in the full panel of roughly 83,000, 20% have a hit.
Definition: the class of an entry is the range in c1: < 50%; c2: ≥ 50% and < 90%; c3: ≥ 90% that contains its growth.

{"molecule": "CCCCCCCCCCCCOc1ccc(C(=O)Oc2ccc(CSP3(=O)OCC4OC(n5cnc6c(N)ncnc65)C(F)C4OP(=O)(O)OCC4OC(n5ccc(=O)[nH]c5=O)C(F)C4O3)cc2)cc1 (centres undefined)", "label value": "c2"}
{"molecule": "Oc1ccc(O)c2c1C1(Cl)C(Cl)=C(Cl)C2(Cl)C1(Cl)Cl", "label value": "c1"}
{"molecule": "ClCCN(CCCl)c1ccc(/C=C\\c2ccnc3ccccc23)cc1", "label value": "c2"}
{"molecule": "O=CN1N=C(c2ccc3c(c2)OCO3)CC1c1sc(N(CCCl)CCCl)nc1Cl (centres undefined)", "label value": "c2"}
{"molecule": "O=C(/C=C/c1ccccc1)N[C@@H](CO)Cc1cnc[nH]1", "label value": "c3"}
{"molecule": "COc1ccc(-c2ccc(OC)c(OC)c2OC)cc1", "label value": "c1"}
{"molecule": "N#[N+]c1cnc([O-])[nH]c1=O", "label value": "c2"}
{"molecule": "COC[CH2][Hg][C]#[C][Hg][CH2]COC", "label value": "c3"}
